- ASSAYED TARGET: NKp30 on human NK cells (human) (UniProt O14931)
- Sequence (O14931 19-201): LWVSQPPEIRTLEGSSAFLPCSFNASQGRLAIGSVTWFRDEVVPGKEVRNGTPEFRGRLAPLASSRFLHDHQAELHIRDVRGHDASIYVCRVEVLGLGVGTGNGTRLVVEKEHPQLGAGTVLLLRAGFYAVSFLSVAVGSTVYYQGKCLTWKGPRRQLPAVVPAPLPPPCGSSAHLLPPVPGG
- PROCEDURE SUMMARY: cell-based or functional assay
ASSAY READOUT: EC50 (nM), MNC based killing of A431 cells, E:T 80:1
The answer is to be given in nM; state only the numeric part.

// VHH16 SEEDbody eff- (bispecific antibody, part only; not given: silenced SEED Fc and cetuximab Fab, V domains shown, not shown: another chain or arm of the molecule; a dimerising Fc or GST; small tags and cut ends) VHH: DVQLQESGGGLVQPGGSLRLSCTASGSIFSSLTMAWWRQAPGKQRELVAGITTDGSTDYADSVKGRFTISRDNAKNTVYLQMDSLKPEDTAVYYCNKSPYYDPTDYDSWGQGTQVTVSS : EC50 (nM), MNC based killing of A431 cells, E:T 80:1 value = 0.00128

// VHH14 SEEDbody eff- (bispecific antibody, part only; not given: silenced SEED Fc and cetuximab Fab, V domains shown, not shown: another chain or arm of the molecule; a dimerising Fc or GST; small tags and cut ends) VHH: DVQLQESGGGLVQPGGSLRLSCEASGVTFNFYSMTWYRQAPGKERELVADITSEGRTEYAHSVKGRFIISRDDFGTMVYLQMNSLKPEDTAVYYCYTGGSWGQGTQVTVSS : EC50 (nM), MNC based killing of A431 cells, E:T 80:1 value = 0.00144

Where do the numbers come from? From patent US20240287177A1.
